Give EC50 for every item shown.
- ASSAY TARGET: biotin-labeled active hMMP-9(cat)_FLAG_Avi (UniProt P14780 107-449, biotin on the Avi tag (biotin ligase BirA))
- Sequence (P14780 other isoform, or with tags, fused parts or gaps): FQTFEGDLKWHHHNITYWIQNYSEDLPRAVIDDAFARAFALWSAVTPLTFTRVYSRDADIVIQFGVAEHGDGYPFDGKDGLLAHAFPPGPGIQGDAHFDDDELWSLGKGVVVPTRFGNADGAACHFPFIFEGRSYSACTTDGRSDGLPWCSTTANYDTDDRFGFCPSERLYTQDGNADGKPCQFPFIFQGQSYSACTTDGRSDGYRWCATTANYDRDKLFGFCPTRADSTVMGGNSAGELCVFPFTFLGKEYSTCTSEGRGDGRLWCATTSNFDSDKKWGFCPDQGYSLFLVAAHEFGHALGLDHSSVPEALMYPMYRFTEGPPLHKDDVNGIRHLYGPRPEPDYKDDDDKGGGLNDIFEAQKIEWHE
- METHOD: ELISA
# value in nM; strip the unit string

For this binder ( active MMP-9-binding peptide M91010 (designed binder) GSGMKETAAAKFERQHMDSPDLGTDDDDKAMADIGSANSDPQFGLFSKYRTPNCRKVGEPACQMSFNPVCGSDMSTYANECTLCMKIREGGHNIKIIRNGPCGASAAA ), measured EC50 is 48

The measured EC50 associated with active MMP-9-binding peptide M91005 (designed binder) GSGMKETAAAKFERQHMDSPDLGTDDDDKAMADIGSANSDPQFGLFSKYRTPNCRKRGGPSCQMSYNPVCGSDMSTYANECTLCMKIREGGHNIKIIRNGPCGASAAA reads 46

For this binder ( active MMP-9-binding peptide M91014 (designed binder) GSGMKETAAAKFERQHMDSPDLGTDDDDKAMADIGSANSDPQFGLFSKYRTPNCVMYKYAQCSHKYKPVCGSDMSTYANECTLCMKIREGGHNIKIIRNGPCGASAAA ), measured EC50 is 8

What the record says about active MMP-9-binding peptide M91012 (designed binder) GSGMKETAAAKFERQHMDSPDLGTDDDDKAMADIGSANSDPQFGLFSKYRTPNCRVRGGPSCQMSFNPVCGSDMSTYANECTLCMKIREGGHNIKIIRNGPCGASAAA : EC50 is 46

FYI, the data here is from patent US20200231654A1.
